# assay.explanation: Absorption and emission spectra, photophysical properties of pH-responsive triangulenium dyes in solution
# Type: physicochemical
# Set-up: unit not given here
# condition.details: in solution
observation.type: λmax (wavelength of maximum absorption)

> print(dat)
                                   compound                         observation.type  observed.measurement
1  CCCCCCCCCCCCn1c2cccc3oc4cccc5c4[c+](c32)c2c1cccc2n5-c1cc(C(F)(F)F)ccc1O [Compound 4h]  λmax (wavelength of maximum absorption)                   557
2  CCCCCCCCCCCCN1c2cccc3c2C2c4c(cccc4N(c4cc(S(C)(=O)=O)ccc4O)c4cccc1c42)O3 (stereo not drawn) [Compound 4g]  λmax (wavelength of maximum absorption)                   557
3  Oc1cccc(N2c3cccc4c3C3c5c(cccc5Oc5cccc2c53)O4)c1 [Compound 3c]  λmax (wavelength of maximum absorption)                   540
4  Oc1ccc(N2c3cccc4c3C3c5c(cccc5Oc5cccc2c53)O4)cc1 [Compound 3d]  λmax (wavelength of maximum absorption)                   540
5  Oc1ccccc1N1c2cccc3c2C2c4c(cccc4Oc4cccc1c42)O3 [Compound 3b]  λmax (wavelength of maximum absorption)                   541
6  CCCCCCCCCCCCN1c2cccc3c2C2c4c(cccc4N(c4cc(F)ccc4O)c4cccc1c42)O3 (stereo not drawn) [Compound 4f]  λmax (wavelength of maximum absorption)                   557
